experimental target: T1, human NPS receptor, 107I variant (human) (UniProt Q6W5P4)
T1 sequence: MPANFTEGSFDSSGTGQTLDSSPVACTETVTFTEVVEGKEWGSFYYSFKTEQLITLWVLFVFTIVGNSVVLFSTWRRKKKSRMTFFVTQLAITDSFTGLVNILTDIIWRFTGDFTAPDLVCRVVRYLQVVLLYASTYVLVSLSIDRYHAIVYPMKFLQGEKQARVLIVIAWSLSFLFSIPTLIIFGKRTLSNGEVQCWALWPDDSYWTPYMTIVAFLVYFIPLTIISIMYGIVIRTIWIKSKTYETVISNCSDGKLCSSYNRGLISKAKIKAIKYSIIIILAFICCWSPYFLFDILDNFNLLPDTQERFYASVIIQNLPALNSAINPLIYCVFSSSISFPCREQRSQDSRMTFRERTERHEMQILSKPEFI
Where no end group is shown, it is not given here. Me2 = N,N-dimethyl-lysine
measurement type: EC50 of calcium mobilization, CHO-Gα16 hNPSR-107I cells (nM)

binder	measurement
SFRN-NH2 [3. SerPheArgAsn-NH2]	2.43
SFKN-NH2 [4. SerPheLysAsn-NH2]	3.02

(I) SFRNGVGTGMKKTSFQRAKS [Neuropeptide S]
(II) SFK(trifluoroacetyl)N-NH2 [6. SerPheLysCOCF3Asn-NH2]
(III) SFK(Me2)N-NH2 [5. SerPheDimethylLysAsn-NH2]
Sort (3 binders) by EC50 of calcium mobilization, CHO-Gα16 hNPSR-107I cells: min first. Lab note: record answer as labels in requested order. I, III, II
(I: 0.59 nM, III: 43.5 nM, II: 563 nM)

Source: paper PMC5414581
